- conditionParameters: in isopropyl acetate, 313.15 K
propertyName: solubility (mole fraction)
Reply with the value as a number alone.

Query block: Complete the entry with solubility (mole fraction) for CCC[C@@H]1CC(=O)N([C@@H](CC)C(N)=O)C1
Result block: 0.287

Every entry's value here was drawn from BigSolDB 2.1.
